B1: Zinc finger homeobox protein 3, residues 2147 to 2202; numbered along this chain, Q15911 (parent)
chain: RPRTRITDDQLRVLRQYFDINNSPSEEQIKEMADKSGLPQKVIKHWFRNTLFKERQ

variants of: B1; test: abundance fitness (aPCA) (normalised: wild type 0, dead -1); higher = more abundant; growth selection in yeast, the domain comes from the species named; details: Homo sapiens
Tag: label 1 if measured abundance fitness is not below -0.1, label 0 if it is.

Worked cases, answers included:
| entry-sequence | label-class |
| --- | --- |
| RPRTRITDDQLRVLRQYFDINNSPSEEQIKEMAQKSGLPQKVIKHWFRNTLFKERQ [D34Q] | label 0 |
| RPRTRITDDQLRVLRFYFDINNSPSEEQIKEMADKSGLPQKVIKHWFRNTLFKERQ [Q16F] | label 0 |
| RPRTRITDDQLRVLRQYFDINNSPSEEQIKEMADKSGLPQKVIKHWFRNTLFKEWQ [R55W] | label 0 |
| RPRTRITDDQLRVLRQYFDINNSPSEEQIKEMADKSGLPQKVIKHWFRNHLFKERQ [T50H] | label 1 |
| RPRTRITDDQLRVLRQYFDINNSPSEEQIKEMADKSGLPQKVILHWFRNTLFKERQ [K44L] | label 1 |

Is the recorded value of abundance fitness equal to or greater than -0.1 for this variant? RPRTRITDDQLRVLRQYFDINNSPSEEQIKEMADKSGLPFKVIKHWFRNTLFKERQ [Q40F]
label 0

Tell me whether abundance fitness is at least -0.1 here: RPRTRITDDQLPVLRQYFDINNSPSEEQIKEMADKSGLPQKVIKHWFRNTLFKERQ [R12P]
label 0
